Below is a list of entries, each paired with its recorded IC50 at 48 h value.
Test: Cytotoxicity against African green monkey Vero cells assessed as reduction in cell viability measured after 48 hrs by MTT assay
Assay type: toxicity, cell-based
Conditions: African green monkey (Chlorocebus sabaeus)
quantity kind: IC50 at 48 h

>>> obs_value("Cc1ccc(-c2nc(-c3ccc(-c4nc(-c5nnc(-c6ccncc6)o5)c[nH]4)cc3)no2)cc1")
"> 15 µM"
>>> obs_value("COc1cc(-c2nc(-c3ccc(-c4nc(-c5nnc(-c6ccncc6)o5)c[nH]4)cc3)no2)cc(OC)c1OC")
"> 14 µM"
>>> obs_value("COc1ccc(-c2nc(-c3ccc(-c4nc(-c5nnc(-c6ccncc6)o5)c[nH]4)cc3)no2)cc1")
"> 16 µM"
>>> obs_value("COc1cc([C@@H]2c3cc4c(cc3[C@@H](O[C@@H]3O[C@@H]5CO[C@@H](C)O[C@H]5[C@H](O)[C@H]3O)[C@H]3COC(=O)[C@H]23)OCO4)cc(OC)c1O [ETOPOSIDE]")
"> 25 µM"
>>> obs_value("Clc1ccc(-c2nc(-c3ccc(-c4nc(-c5nnc(-c6ccncc6)o5)c[nH]4)cc3)no2)cc1")
"> 25 µM"
>>> obs_value("Brc1ccc(-c2nc(-c3ccc(-c4nc(-c5nnc(-c6ccncc6)o5)c[nH]4)cc3)no2)cc1")
"> 20 µM"
>>> obs_value("CN(C)c1ccc(-c2nc(-c3ccc(-c4nc(-c5nnc(-c6ccncc6)o5)c[nH]4)cc3)no2)cc1")
"> 16 µM"
